Source: ChEMBL document CHEMBL3112403

target: UDP-N-acetylmuramoyl-tripeptide--D-alanyl-D-alanine ligase (Streptococcus pneumoniae)
REPORTED_ENDPOINT: IC50 (µM)
Return type: number; implicit unit µM.

{"STRUCTURE_NOTATION": "COC(=O)c1ccc(CN2CCc3c(sc(NC(=O)c4cc(OCCNC(=N)N)ccc4Cl)c3C#N)C2)cc1.Cl", "TARGET_SYSTEM": "UDP-N-acetylmuramoyl-tripeptide--D-alanyl-D-alanine ligase (Streptococcus pneumoniae)", "READOUT_VALUE": 37}
{"STRUCTURE_NOTATION": "COC(=O)c1ccc(CN2CCc3c(sc(NC(=O)c4cc(OCCN)ccc4Cl)c3C#N)C2)cc1", "TARGET_SYSTEM": "UDP-N-acetylmuramoyl-tripeptide--D-alanyl-D-alanine ligase (Streptococcus pneumoniae)", "READOUT_VALUE": 109}

Measured on UDP-N-acetylmuramoyl-tripeptide--D-alanyl-D-alanine ligase (Streptococcus pneumoniae), N#Cc1c(NC(=O)c2cc(OCCNC(=O)C(F)(F)F)ccc2Cl)sc2c1CCN(Cc1ccccc1)C2 has a documented IC50 of 172

Measured IC50 (UDP-N-acetylmuramoyl-tripeptide--D-alanyl-D-alanine ligase (Streptococcus pneumoniae)), entry Cl.N#Cc1c(NC(=O)c2cc(OCCNC(=N)N)ccc2Cl)sc2c1CCN(Cc1ccccc1)C2 : 55

Record for N#Cc1c(NC(=O)c2cc(OCCN)ccc2Cl)sc2c1CCN(Cc1ccc(C(=O)O)cc1)C2 under target or system UDP-N-acetylmuramoyl-tripeptide--D-alanyl-D-alanine ligase (Streptococcus pneumoniae): IC50 reported as 663

* * *

tested on: Escherichia coli; experiment: Antibacterial activity against Escherichia coli 1411 assessed as growth inhibition by broth microdilution method in presence of polymyxin B nonapeptide; type: functional
REPORTED_ENDPOINT: MIC (µg/mL)
Numbers only; they are read as µg/mL.

Guide cases for MIC, answers given:
{"STRUCTURE_NOTATION": "Cl.N#Cc1ccc(CN2CCc3c(sc(NC(=O)c4cc(OCCNC(=N)N)ccc4Cl)c3C#N)C2)cc1", "UNIT_OF_MEASUREMENT": "µg/mL", "READOUT_VALUE": 32}
{"STRUCTURE_NOTATION": "COC(=O)c1ccc(CN2CCc3c(sc(NC(=O)c4cc(OCCN)ccc4Cl)c3C#N)C2)cc1", "UNIT_OF_MEASUREMENT": "µg/mL", "READOUT_VALUE": 64}

Record N#Cc1c(NC(=O)c2cc(OCCN)ccc2Cl)sc2c1CCN(Cc1cccc(O)c1)C2 , field MIC: 64

Form field MIC, entry Cl.N#Cc1c(NC(=O)c2cccc(OCCNC(=N)N)c2)sc2c1CCCC2 : 64

Lookup result for N#Cc1c(NC(=O)c2cc(OCCCN)ccc2Cl)sc2c1CCCC2 ; measured MIC: 32

* * *

test system: Escherichia coli; assay: Antibacterial activity against Escherichia coli 1411 assessed as growth inhibition by broth microdilution method; format: functional
// reported MIC for each item listed
Output spec: scalar in µg/mL, unitless text.

{"STRUCTURE_NOTATION": "COc1ccc(CN2CCc3c(sc(NC(=O)c4cc(OCCNC(=N)N)ccc4Cl)c3C#N)C2)cc1.Cl", "TARGET_SYSTEM": "Escherichia coli", "UNIT_OF_MEASUREMENT": "µg/mL", "MIC": 32}

Assay Escherichia coli, sample N#Cc1c(NC(=O)c2cc(OCCN)ccc2Cl)sc2c1CCN(Cc1ccccc1)C2 , MIC read: 64

Case N#Cc1c(NC(=O)c2cc(OCCN)ccc2Cl)sc2c1CCN(Cc1cccc(O)c1)C2 , Escherichia coli, MIC recorded as 128

Measured on Escherichia coli, Cl.N#Cc1c(NC(=O)c2cc(OCCNC(=N)N)ccc2Cl)sc2c1CCN(Cc1ccccc1)C2 has a documented MIC of 32

The reported Escherichia coli MIC of COc1ccc(CN2CCc3c(sc(NC(=O)c4cc(OCCN)ccc4Cl)c3C#N)C2)cc1 is 128

I looked up Cl.N#Cc1c(NC(=O)c2cc(OCCN)ccc2Cl)sc2c1CCCC2 and its MIC for Escherichia coli was 128

* * *

target: UDP-N-acetylmuramoyl-tripeptide--D-alanyl-D-alanine ligase (Streptococcus pneumoniae); experiment: Inhibition of Streptococcus pneumoniae MurF ligase using D-Ala-D-Ala as substrate assessed as residual activity at 250 uM after 15 mins by malachite green assay
REPORTED_ENDPOINT: Activity (%)
Numbers only; they are read as %.

// below: answered compounds
{"COMPOUND": "CC(=O)Oc1ccc(C2CCc3c(sc(NC(=O)c4cc(OCCNC(=O)C(F)(F)F)ccc4Cl)c3C#N)C2)cc1 (centres undefined)", "Activity, %": 98}
{"COMPOUND": "N#Cc1c(NC(=O)c2cc(OCCN)ccc2Cl)sc2c1CCNC2", "Activity, %": 85}

For this compound ( COC(=O)c1ccc(CN2CCc3c(sc(NC(=O)c4cc(OCCNC(=O)C(F)(F)F)ccc4Cl)c3C#N)C2)cc1 ), measured Activity is 55

Measured Activity of N#Cc1c(NC(=O)c2cc(OCC(N)=O)ccc2Cl)sc2c1CCCC2 : 87

* * *

Entries and their measured MIC follow.
test system: Escherichia coli; assay: Antibacterial activity against Escherichia coli 1411 assessed as growth inhibition by broth microdilution method in presence of polymyxin B nonapeptide; format: functional

Worked examples, 2 molecules total:
{"MOLECULE": "N#Cc1c(NC(=O)c2cc(OCCNC(=O)C(F)(F)F)ccc2Cl)sc2c1CCN(Cc1ccccc1)C2", "READOUT_VALUE": "> 256 µg/mL"}
{"MOLECULE": "Cl.N#Cc1c(NC(=O)c2cc(OCCNC(=N)N)ccc2Cl)sc2c1CCN(Cc1ccc(O)cc1)C2", "READOUT_VALUE": "16 µg/mL"}

MIC reported for this molecule COc1ccc(CN2CCc3c(sc(NC(=O)c4cc(OCCNC(=N)N)ccc4Cl)c3C#N)C2)cc1.Cl : 32 µg/mL

For reference, reported MIC for Cl.N#Cc1c(NC(=O)c2cc(OCCCNC(=N)N)ccc2Cl)sc2c1CCCC2 stands at 32 µg/mL

The molecule identified as Cl.N#Cc1c(NC(=O)c2cc(OCCNC(=N)N)ccc2Cl)sc2c1CCN(Cc1cccc(O)c1)C2 registered its MIC at 64 µg/mL

For record N#Cc1c(NC(=O)c2cc(OCCN)ccc2Cl)sc2c1CCN(Cc1ccccc1)C2 the listed MIC is 32 µg/mL

The reported MIC of the molecule N#Cc1c(NC(=O)c2cc(OCCN)ccc2Cl)sc2c1CCN(Cc1ccc(C(=O)O)cc1)C2 was > 256 µg/mL

* * *

Readings of Activity for the listed molecules
Molecular target: UDP-N-acetylmuramoyl-tripeptide--D-alanyl-D-alanine ligase (Streptococcus pneumoniae) (UniProt Q9ZHC3)
Sequence (whole entry): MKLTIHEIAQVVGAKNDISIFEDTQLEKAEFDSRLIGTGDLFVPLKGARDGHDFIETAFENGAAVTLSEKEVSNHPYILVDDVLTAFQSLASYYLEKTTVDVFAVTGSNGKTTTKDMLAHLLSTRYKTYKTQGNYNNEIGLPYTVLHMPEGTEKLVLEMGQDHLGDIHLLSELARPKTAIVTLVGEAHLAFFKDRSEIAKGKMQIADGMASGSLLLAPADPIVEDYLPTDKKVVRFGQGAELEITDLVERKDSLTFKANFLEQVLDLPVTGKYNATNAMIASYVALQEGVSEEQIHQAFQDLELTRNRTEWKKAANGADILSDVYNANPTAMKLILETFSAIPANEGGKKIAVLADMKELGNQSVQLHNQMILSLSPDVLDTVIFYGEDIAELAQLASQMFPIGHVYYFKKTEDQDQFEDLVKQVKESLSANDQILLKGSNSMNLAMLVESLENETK
Test: Inhibition of Streptococcus pneumoniae MurF ligase using D-Ala-D-Ala as substrate assessed as residual activity at 250 uM after 15 mins by malachite green assay
Lab book: enter the figure in %, no units written.

Solved cases (4 shown):
{"STRUCTURE_NOTATION": "N#Cc1c(NC(=O)c2cc(OCCNC(=O)C(F)(F)F)ccc2Cl)sc2c1CCN(Cc1cccc(O)c1)C2", "UNIT_OF_MEASUREMENT": "%", "READOUT_VALUE": 71}
{"STRUCTURE_NOTATION": "CC(C)(C)OC(=O)N1CCc2c(sc(NC(=O)c3cc(OCCNC(=O)C(F)(F)F)ccc3Cl)c2C#N)C1", "UNIT_OF_MEASUREMENT": "%", "READOUT_VALUE": 96}
{"STRUCTURE_NOTATION": "N#Cc1ccc(CN2CCc3c(sc(NC(=O)c4cc(OCCNC(=O)C(F)(F)F)ccc4Cl)c3C#N)C2)cc1", "UNIT_OF_MEASUREMENT": "%", "READOUT_VALUE": 55}
{"STRUCTURE_NOTATION": "N#Cc1c(NC(=O)c2cccc(OCCCN)c2)sc2c1CCCC2", "UNIT_OF_MEASUREMENT": "%", "READOUT_VALUE": 53}

# molecule N#Cc1c(NC(=O)c2cc(OCCNC(=O)C(F)(F)F)ccc2Cl)sc2c1CCNC2.O=C(O)C(F)(F)F ; its Activity = 99
